Target: FAAH (Homo sapiens, UniProt O00519)
Sequence (O00519 1-579): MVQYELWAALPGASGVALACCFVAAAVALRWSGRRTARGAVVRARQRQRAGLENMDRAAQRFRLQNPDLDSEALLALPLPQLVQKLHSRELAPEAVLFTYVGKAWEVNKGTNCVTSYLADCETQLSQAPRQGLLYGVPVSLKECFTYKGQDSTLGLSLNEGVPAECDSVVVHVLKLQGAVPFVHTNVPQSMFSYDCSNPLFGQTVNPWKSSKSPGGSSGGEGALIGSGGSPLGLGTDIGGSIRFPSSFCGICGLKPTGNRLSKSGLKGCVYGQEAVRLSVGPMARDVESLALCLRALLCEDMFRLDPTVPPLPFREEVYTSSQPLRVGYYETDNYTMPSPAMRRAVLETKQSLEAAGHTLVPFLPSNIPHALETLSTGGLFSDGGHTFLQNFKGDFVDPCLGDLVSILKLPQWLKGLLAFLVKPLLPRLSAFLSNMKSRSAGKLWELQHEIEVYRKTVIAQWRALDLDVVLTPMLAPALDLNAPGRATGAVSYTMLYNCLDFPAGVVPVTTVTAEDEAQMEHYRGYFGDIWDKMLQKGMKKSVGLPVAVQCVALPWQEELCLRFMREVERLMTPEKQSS
Assay: Assay Method 1: FAAH assay, 3H-anandamide hydrolysis in homogenate of T84 cells or SK-N-MC cells transfected with human FAAH
Conditions: average of results, > = solubility limit or highest concentration tested
Counter-ions that a name gives are not always drawn.
RECORDED ENDPOINT: IC50 (nM)

Completed entries (count: 5):
{"COMPOUND": "O=C(Nc1cnccn1)N1CCN(Cc2ccc(Cl)c(Cl)c2)CC1 [Example 220]", "IC50 / nM": 320}
{"COMPOUND": "O=C(Nc1ccon1)N1CCN(Cc2ccc(F)c(Oc3ccccc3)c2)CC1 [Example 49, trifluoroacetic acid salt]", "IC50 / nM": 2000}
{"COMPOUND": "N#Cc1ccc(Oc2cccc(CN3CCN(C(=O)Nc4noc5ccccc45)CC3)c2)cc1C(F)(F)F [Example 128]", "IC50 / nM": 230}
{"COMPOUND": "N#Cc1cccc(Oc2cccc(CN3CCN(C(=O)Nc4cnccn4)CC3)c2)c1 [Example 235]", "IC50 / nM": 600}
{"COMPOUND": "O=C(Nc1cc[nH]n1)N1CCN(Cc2cccc(Oc3ccc(Cl)c(Cl)c3)c2)CC1 [Example 54, trifluoroacetic acid salt]", "IC50 / nM": 370}

(I) O=C(Nc1ccon1)N1CCN(Cc2cccc(Oc3cccc(Cl)c3)c2)CC1 [Example 136]
(II) O=C(Nc1ccn[nH]1)N1CCC(Cc2ccc3ccccc3c2)CC1 [Example 14]
Quick check, higher IC50 between I and II ? Give the chosen item's label as your response.
II

====

Molecular target: UniProt:O00519
Sequence (O00519 1-579): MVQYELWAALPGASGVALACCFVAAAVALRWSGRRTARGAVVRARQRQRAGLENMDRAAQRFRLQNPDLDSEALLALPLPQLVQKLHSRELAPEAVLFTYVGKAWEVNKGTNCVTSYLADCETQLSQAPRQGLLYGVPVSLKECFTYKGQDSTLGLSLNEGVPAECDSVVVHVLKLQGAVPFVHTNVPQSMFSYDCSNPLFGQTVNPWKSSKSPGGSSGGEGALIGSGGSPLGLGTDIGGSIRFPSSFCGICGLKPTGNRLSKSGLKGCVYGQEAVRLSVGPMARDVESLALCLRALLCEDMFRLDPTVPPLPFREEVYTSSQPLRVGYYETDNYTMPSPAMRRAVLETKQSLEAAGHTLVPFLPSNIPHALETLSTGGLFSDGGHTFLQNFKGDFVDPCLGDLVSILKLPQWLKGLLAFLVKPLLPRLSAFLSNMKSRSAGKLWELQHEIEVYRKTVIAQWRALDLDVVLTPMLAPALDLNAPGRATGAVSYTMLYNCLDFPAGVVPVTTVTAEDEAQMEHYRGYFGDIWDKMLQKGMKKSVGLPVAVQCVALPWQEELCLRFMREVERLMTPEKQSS
Experiment: Assay Method 1: FAAH assay, 3H-anandamide hydrolysis in homogenate of T84 cells or SK-N-MC cells transfected with human FAAH
Settings: average of results, > = solubility limit or highest concentration tested
Where a name gives a salt, the structure may show the parent alone.
RECORDED ENDPOINT: IC50 (nM)

{"COMPOUND": "O=C(Nc1ccon1)N1CCN(Cc2cccc(Oc3ccc(OCC(F)(F)F)cc3)c2)CC1", "QUANTITY UNIT": "nM", "IC50": 60}
{"COMPOUND": "O=C(Nc1ccc2[nH]nnc2c1)N1CCC(Cc2ccc3ccccc3c2)CC1", "QUANTITY UNIT": "nM", "IC50": 39}
{"COMPOUND": "N#CCc1ccccc1C#Cc1cccc(CN2CCN(C(=O)Nc3noc4ccccc34)CC2)c1", "QUANTITY UNIT": "nM", "IC50": 27}
{"COMPOUND": "O=C(Nc1cccnn1)N1CCN(Cc2cccc(C#Cc3ccccc3Cl)c2)CC1", "QUANTITY UNIT": "nM", "IC50": 46}
{"COMPOUND": "O=C(Nc1cnccn1)N1CCN(Cc2cccc(Oc3ccc(F)c(F)c3)c2)CC1", "QUANTITY UNIT": "nM", "IC50": 130}

(P) O=C(Nc1cnccn1)N1CCN(Cc2cccc(OCc3ccccc3)c2)CC1
(Q) O=C(Nc1noc2ccccc12)N1CCN(Cc2cccc(OC(F)(F)F)c2)CC1 [Example 52, trifluoroacetic acid salt]
Of P versus Q , which is the one with smaller reported IC50? Give the chosen item's label as your response.
Q
(Q: 74 nM, P: 180 nM)

====

Molecular target: rat FAAH (Rattus norvegicus)
Sequence (P97612 whole entry): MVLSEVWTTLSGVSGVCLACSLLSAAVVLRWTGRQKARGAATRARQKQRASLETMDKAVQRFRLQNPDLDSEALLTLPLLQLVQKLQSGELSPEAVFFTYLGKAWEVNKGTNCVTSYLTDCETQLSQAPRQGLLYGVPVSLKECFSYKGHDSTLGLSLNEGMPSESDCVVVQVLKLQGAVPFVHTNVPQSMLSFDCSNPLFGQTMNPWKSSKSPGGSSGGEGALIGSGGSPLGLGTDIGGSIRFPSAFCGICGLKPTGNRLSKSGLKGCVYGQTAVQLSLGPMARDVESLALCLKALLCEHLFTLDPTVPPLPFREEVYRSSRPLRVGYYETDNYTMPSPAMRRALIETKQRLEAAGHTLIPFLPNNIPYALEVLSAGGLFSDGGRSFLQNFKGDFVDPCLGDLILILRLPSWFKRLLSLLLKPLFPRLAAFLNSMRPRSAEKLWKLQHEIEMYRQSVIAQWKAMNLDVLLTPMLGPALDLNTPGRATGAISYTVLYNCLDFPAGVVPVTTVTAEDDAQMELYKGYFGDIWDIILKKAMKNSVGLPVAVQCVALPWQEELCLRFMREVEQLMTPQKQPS
Assay: Assay Method 2: FAAH assay, 3H-anandamide hydrolysis in homogenate of SK-N-MC cells transfected with rat FAAH
Conditions: average of results, > = solubility limit or highest concentration tested
Structures can show the parent of a compound that is named as a salt.
RECORDED ENDPOINT: IC50 (nM)

Completed entries (count: 2):
{"MOLECULE": "O=C(Nc1cccc2nsnc12)N1CCN(Cc2ccc3c(c2)OC(F)(F)O3)CC1 [Example 4, trifluoroacetic acid salt]", "ASSAY SYSTEM": "rat FAAH (Rattus norvegicus)", "IC50 [nM]": 260}
{"MOLECULE": "O=C(Nc1ccon1)N1CCN(Cc2cccc(Oc3ccc(SC(F)(F)F)cc3)c2)CC1", "ASSAY SYSTEM": "rat FAAH (Rattus norvegicus)", "IC50 [nM]": 270}

(A) O=C(Nc1noc2ccccc12)N1CCN(Cc2cccc(Oc3ccc(C(F)(F)F)cc3)c2)CC1
(B) O=C(Nc1noc2ccccc12)N1CCN(Cc2ccc(Br)c(F)c2)CC1
(C) O=C(Nc1cnccn1)N1CCN(Cc2ccc(Br)c(Br)c2)CC1
Rank entries according to their IC50, from the largest number down. Respond with the label ranking, as requested.
C, B, A

(I) O=C(Nc1cnccn1)N1CCN(Cc2ccc(Br)c(F)c2)CC1
(II) O=C(Nc1cnccn1)N1CCN(Cc2cccc(Oc3ccccc3)c2)CC1
(III) O=C(Nc1nn[nH]n1)N1CCN(Cc2cccc(Oc3ccc(OCC(F)(F)F)cc3)c2)CC1
(IV) O=C(Nc1noc2ccccc12)N1CCN(Cc2cccc(Oc3cc(F)cc(F)c3)c2)CC1 [Example 34, trifluoroacetic acid salt]
Provide the items ranked by increasing IC50. Respond with the label ranking, as requested.
III, IV, I, II
(III: 20 nM, IV: 190 nM, I: 600 nM, II: 5300 nM)

(A) O=C(Nc1noc2ccccc12)N1CCC(Cc2ccc3c(c2)OC(F)(F)O3)CC1
(B) O=C(Nc1cccc2nsnc12)N1CCN(Cc2cccc(C#Cc3ccccc3)c2)CC1
(C) O=C(Nc1noc2ccccc12)N1CCN(Cc2cccc(C#Cc3ccc(Cl)cc3Cl)c2)CC1
Rank entries according to their IC50, from the largest number down. Respond with the label ranking, as requested.
C, B, A

(A) O=C(Nc1noc2ccccc12)N1CCN(Cc2cccc(C#Cc3ccccc3Cl)c2)CC1
(B) O=C(Nc1ccon1)N1CCN(Cc2cccc(Oc3ccccc3Cl)c2)CC1
Of A versus B , which is the one with smaller reported IC50? Give the chosen item's label as your response.
A

====

Biological target: FAAH (Homo sapiens, UniProt O00519)
Assay: Assay Method 1: FAAH assay, 3H-anandamide hydrolysis in homogenate of T84 cells or SK-N-MC cells transfected with human FAAH
Conditions: average of results, > = solubility limit or highest concentration tested
Protocol: A. Transfection of Cells with Human FAAH A 10-cm tissue culture dish with a confluent monolayer of SK—N-MC cells was split 2 days (d) prior to transfection. Using sterile technique, the media was removed and the cells were detached from the dish by the addition of trypsin. One fifth of the cells were then placed onto a new 10-cm dish. […] After 10 d, dishes were analyzed for surviving colonies of cells. […]
RECORDED ENDPOINT: IC50 (nM)

{"COMPOUND": "N#Cc1cccc(C#Cc2cccc(CN3CCN(C(=O)Nc4noc5ccccc45)CC3)c2)c1 [Example 88]", "RECORDED ENDPOINT": "IC50", "QUANTITY UNIT": "nM", "OBS VALUE": 15}
{"COMPOUND": "O=C(Nc1cnccn1)N1CCN(Cc2cccc(Oc3cccc(OC(F)(F)F)c3)c2)CC1 [Example 242]", "RECORDED ENDPOINT": "IC50", "QUANTITY UNIT": "nM", "OBS VALUE": 9}

(1) O=C(Nc1nn[nH]n1)N1CCN(Cc2cccc(Oc3ccc4c(c3)OC(F)(F)O4)c2)CC1 [Example 189]
(2) CCCCc1ccc(Oc2cccc(CN3CCN(C(=O)Nc4noc5ccccc45)CC3)c2)cc1 [Example 209]
Of 1 versus 2 , which is the one with smaller reported IC50? Give the chosen item's label as your response.
2

Each recorded value in this set is attributed to patent US20090062294A1.
